molecular target: human GLP-1 receptor (human, UniProt P43220 24-463); experiment: cell-based or functional assay
Positions of bridges follow the written chain, without caps; N, C: chain ends. Non-standard residues stand in square brackets, D forms with d. No end group written: not given here. *: point of attachment. Acetyl(2-(4-imidazolyl)) = O=C(Cc1c[nH]cn1)*; Aib = CC(C)(N)C(=O)O
Cut-off 10% on In vitro Activity Compared to Native Peptide (%) vs. GLP-1, inclusive. At or above means met; below means not met.

Binder	Classification
{Acetyl(2-(4-imidazolyl))}-[Aib]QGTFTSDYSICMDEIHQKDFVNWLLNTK (bridge 15-19) [triple agonist of SEQ ID NO: 49]	met
[Acetyl(2-(4-imidazolyl))][Aib]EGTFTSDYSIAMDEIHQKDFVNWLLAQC (bridge 16-20) [triple agonist of SEQ ID NO: 83]	met
H[Aib]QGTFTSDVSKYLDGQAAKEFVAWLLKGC [triple agonist of SEQ ID NO: 7]	met
H[Aib]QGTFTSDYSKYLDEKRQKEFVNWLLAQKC (bridge 16-20) [triple agonist of SEQ ID NO: 34]	met
[Acetyl(2-(4-imidazolyl))][Aib]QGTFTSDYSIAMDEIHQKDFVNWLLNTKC (bridge 16-20) [triple agonist of SEQ ID NO: 94]	not met
H[Aib]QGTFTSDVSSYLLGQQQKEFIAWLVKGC [triple agonist of SEQ ID NO: 4]	not met
